# Assay Summary: Solubility of various drugs: effect of CMC in aqueous HPβCD solutions (Example 1)
# Conditions: 0.25% cmc + 10% hpbetacd
Kindly state solubility for each of the entries shown.
One number for each entry, in µg/mL.

Some molecules with recorded solubility:
Data request: For the molecule CC(=O)[C@H]1CC[C@H]2[C@@H]3CCC4=CC(=O)CC[C@]4(C)[C@H]3CC[C@]12C [Progesterone, progesterone] , what solubility is on record?
Data returned: 6110

Data request: Continue with NC(=O)N1c2ccccc2C=Cc2ccccc21 [Carbamazepine, carbamazepine]
Data returned: 9200

Continuing:
Data request: For the molecule C[C@@H]1C[C@H]2[C@@H]3CCC4=CC(=O)C=C[C@]4(C)[C@@]3(F)[C@@H](O)C[C@]2(C)[C@@]1(O)C(=O)CO [Dexamethasone, dexamethasone] , what solubility is on record?
Data returned: 8750

---

# Assay Summary: Effect of polymers on the solubilization of various compounds in aqueous HPβCD solutions (Example 14)
# Conditions: pvp/hpβcd acidic hcl solution
Experimental Endpoint: solubility (µg/mL)
One number for each entry, in µg/mL.

Data request: For the compound "O=C(O)c1ccccc1O" , what solubility is on record?
Data returned: 4070

---

# Assay Summary: physchem
# Conditions: aqueous 10% hpβcd ms=0.9
Experimental Endpoint: solubility (µg/mL)
Numbers only, in µg/mL.

Data request: For the compound CC(=O)Nc1nnc(S(N)(=O)=O)s1 [Acetazolamide, acetazolamide] , what solubility is on record?
Data returned: 2520

---

# Assay Summary: Effect of PVP on the solubilization of drugs in aqueous HPβCD solutions (Example 7)
# Conditions: with vs without 0.25% PVP
Kindly state S4 /S3 for each of the entries shown.
Numbers only.

Some molecules with recorded S4 /S3:
Data request: For the molecule "C[C@@H]1C[C@H]2[C@@H]3CCC4=CC(=O)C=C[C@]4(C)[C@@]3(F)[C@@H](O)C[C@]2(C)[C@@]1(O)C(=O)CO" , what S4 /S3 is on record?
Data returned: 1.06

Data request: Continue with CCOc1ccc2nc(S(N)(=O)=O)sc2c1 [Ethoxyzolamide]
Data returned: 2.00

Data request: Continue with "CC(=O)[C@H]1CC[C@H]2[C@@H]3CCC4=CC(=O)CC[C@]4(C)[C@H]3CC[C@]12C"
Data returned: 1.20

Continuing:
Data request: For the molecule NC(=O)N1c2ccccc2C=Cc2ccccc21 [Carbamazepine, carbamazepine] , what S4 /S3 is on record?
Data returned: 1.17

---

# Assay Summary: Solubility of various drugs: effect of CMC in aqueous HPβCD solutions (Example 1)
# Conditions: aqueous 10% hpbetacd
Experimental Endpoint: solubility (µg/mL)
Numbers only, in µg/mL.

Some compounds with recorded solubility:
Data request: For the compound NC(=O)N1c2ccccc2C=Cc2ccccc21 [Carbamazepine, carbamazepine] , what solubility is on record?
Data returned: 7000

Data request: Continue with "C[C@@H]1C[C@H]2[C@@H]3CCC4=CC(=O)C=C[C@]4(C)[C@@]3(F)[C@@H](O)C[C@]2(C)[C@@]1(O)C(=O)CO"
Data returned: 8430

Here's the next entry for you.
Data request: For the compound "CC(=O)[C@H]1CC[C@H]2[C@@H]3CCC4=CC(=O)CC[C@]4(C)[C@H]3CC[C@]12C" , what solubility is on record?
Data returned: 4030

---

# Assay Summary: physchem
# Conditions: aqueous 10% hpβcd
Experimental Endpoint: solubility (mg/mL)
One number for each entry, in mg/mL.

Data request: For the compound C=C1CC[C@H](O)C/C1=C/C=C1\CCC[C@]2(C)[C@@H]([C@H](C)CCCC(C)C)CC[C@@H]12 [Cholecalciferol] , what solubility is on record?
Data returned: 0.61

Data request: Continue with COc1cc(C=O)ccc1O [Vanillin]
Data returned: 25

Data request: Continue with CC(C)(O)C(Cl)(Cl)Cl [Chlorbutol]
Data returned: 28.6

Data request: Continue with CC12CCC(CC1=O)C2(C)C (centres unmarked) [Camphor]
Data returned: 12.7

Continuing:
Data request: For the compound CN(C)c1ccc(N=Nc2ccccc2)cc1 [Methylyellow] , what solubility is on record?
Data returned: 0.23

---

# Assay Summary: physchem
# Conditions: 0.25% cmc, 10% hpbcd
Kindly state solubility for each of the entries shown.
Numbers only, in µg/mL.

Data request: For the compound Clc1ccc(COC(Cn2ccnc2)c2ccc(Cl)cc2Cl)c(Cl)c1 (centres unmarked) , what solubility is on record?
Data returned: 2500

Here's the next entry for you.
Data request: For the compound CC(=O)Nc1nnc(S(N)(=O)=O)s1 [Acetazolamide, acetazolamide] , what solubility is on record?
Data returned: 3110

---

# Assay Summary: physchem
# Conditions: 0.25% hpmc + 10% hpβcd
Record fulfilled whenever solubility is at 10 mg/mL or higher; record not fulfilled when lower.

Data request: Please check the record "COc1cc(C=O)ccc1O" and state if its solubility is at or above 10 mg/mL.
Data returned: fulfilled

Data request: Continue with CC12CCC(CC1=O)C2(C)C (centres unmarked)
Data returned: fulfilled

Data request: Continue with "CN(C)c1ccc(N=Nc2ccccc2)cc1"
Data returned: not fulfilled

Data request: Continue with "CC(C)(O)C(Cl)(Cl)Cl"
Data returned: fulfilled

Next, consider the following compound.
Data request: Please check the record "C=C1CC[C@H](O)C/C1=C/C=C1\CCC[C@]2(C)[C@@H]([C@H](C)CCCC(C)C)CC[C@@H]12" and state if its solubility is at or above 10 mg/mL.
Data returned: not fulfilled

---

# Assay Summary: physchem
# Conditions: water
Experimental Endpoint: solubility at 72 h

Some molecules with recorded solubility at 72 h:
Data request: For the molecule Clc1ccc(COC(Cn2ccnc2)c2ccc(Cl)cc2Cl)cc1 (centres unmarked) [Econazole, econazole] , what solubility at 72 h is on record?
Data returned: 570 µg/mL

Data request: Continue with COc1cc(Cc2cnc(N)nc2N)cc(OC)c1OC [Trimethoprim]
Data returned: 820 µg/mL

Data request: Continue with Clc1ccc(COC(Cn2ccnc2)c2ccc(Cl)cc2Cl)c(Cl)c1 (centres unmarked) [Miconazole, miconazole]
Data returned: 40 µg/mL

Give me solubility at 72 h for each of these molecules, listed below.
1. CC(=O)Nc1nnc(S(N)(=O)=O)s1 [Acetazolamide, acetazolamide]
2. CCOc1ccc2nc(S(N)(=O)=O)sc2c1 [Ethoxyzolamide]

Data returned:
["700 µg/mL", "40 µg/mL"]

---

Kindly state solubility ratio for each of the entries shown.
# Assay Summary: Effect of polymers on the solubilization of various compounds in aqueous HPβCD solutions (Example 14)
# Conditions: HPβCD with PVP / HPβCD without polymer (S7)
Give bare numbers.

Some molecules with recorded solubility ratio:
Data request: For the molecule "O=C(O)c1ccccc1O" , what solubility ratio is on record?
Data returned: 1.10

Data request: Continue with COc1ccc(O)c(C(C)(C)C)c1 [Butylated hydroxyanisole]
Data returned: 1.14

Data request: Continue with "C=C1CC[C@H](O)C/C1=C/C=C1\CCC[C@]2(C)[C@@H]([C@H](C)CCCC(C)C)CC[C@@H]12"
Data returned: 1.25

Continuing:
Data request: For the molecule "CN(C)c1ccc(N=Nc2ccccc2)cc1" , what solubility ratio is on record?
Data returned: 1.04

---

# Assay Summary: physchem
# Conditions: 10% hpβcd ms 0.7
Experimental Endpoint: solubility at 72 h (µg/mL)
Answers are plain numbers, in µg/mL.

Some compounds with recorded solubility at 72 h:
Data request: For the compound CCOc1ccc2nc(S(N)(=O)=O)sc2c1 [Ethoxyzolamide] , what solubility at 72 h is on record?
Data returned: 1360

Data request: Continue with Clc1ccc(COC(Cn2ccnc2)c2ccc(Cl)cc2Cl)cc1 (stereo not drawn)
Data returned: 5220

Data request: Continue with Clc1ccc(COC(Cn2ccnc2)c2ccc(Cl)cc2Cl)c(Cl)c1 (stereo not drawn)
Data returned: 2360

Give me solubility at 72 h for each of these compounds, listed below.
1. CC(=O)Nc1nnc(S(N)(=O)=O)s1 [Acetazolamide, acetazolamide]
2. Clc1ccccc1C(c1ccccc1)(c1ccccc1)n1ccnc1
3. COc1cc(Cc2cnc(N)nc2N)cc(OC)c1OC

Data returned:
1: 2800; 2: 1200; 3: 2830

---

# Assay Summary: physchem
# Conditions: 0.25% pvp, 10% hpβcd
Kindly state solubility at 72 h for each of the entries shown.
Numbers only, in µg/mL.

Data request: For the compound CC(=O)Nc1nnc(S(N)(=O)=O)s1 [Acetazolamide, acetazolamide] , what solubility at 72 h is on record?
Data returned: 3660

Give me solubility at 72 h for each of these compounds, listed below.
1. Clc1ccccc1C(c1ccccc1)(c1ccccc1)n1ccnc1
2. Clc1ccc(COC(Cn2ccnc2)c2ccc(Cl)cc2Cl)c(Cl)c1 (stereo not drawn)
3. Clc1ccc(COC(Cn2ccnc2)c2ccc(Cl)cc2Cl)cc1 (stereo not drawn)

Data returned:
[1800, 3400, 5650]

Give me solubility at 72 h for each of these compounds, listed below.
1. COc1cc(Cc2cnc(N)nc2N)cc(OC)c1OC
2. CCOc1ccc2nc(S(N)(=O)=O)sc2c1 [Ethoxyzolamide]

Data returned:
6470
2720
